Could you please report measured inhibition for the items listed next?
- assay-system: Adenosine receptor A1 (Rattus norvegicus)
- assay-notes: Inhibition of [3H]PIA binding to Adenosine A1 receptor in rat brain membranes at 100 uM
- Format: cell membranes
- condition-parameters: 250 uM, in the assay text read “250 uM” for “100 uM”
Give bare numbers, in %.

The following molecules have reported results that may help.
C=CCn1c(=O)c2c(nc(-c3ccc(S(=O)(=O)O)cc3)n2C)n(C)c1=O ... 35
Cn1c(-c2ccc(S(=O)(=O)O)cc2)nc2c1c(=O)[nH]c(=O)n2C ... 1.8

Turning now to a further record.
stdin: Look up inhibition with Adenosine receptor A1 (Rattus norvegicus) for this molecule: `Cn1c(-c2ccc(S(N)(=O)=O)cc2)nc2c1c(=O)[nH]c(=O)n2C`
stdout: 33

---

Ki values recorded for UniProtKB P30543
Sequence (P30543 whole entry): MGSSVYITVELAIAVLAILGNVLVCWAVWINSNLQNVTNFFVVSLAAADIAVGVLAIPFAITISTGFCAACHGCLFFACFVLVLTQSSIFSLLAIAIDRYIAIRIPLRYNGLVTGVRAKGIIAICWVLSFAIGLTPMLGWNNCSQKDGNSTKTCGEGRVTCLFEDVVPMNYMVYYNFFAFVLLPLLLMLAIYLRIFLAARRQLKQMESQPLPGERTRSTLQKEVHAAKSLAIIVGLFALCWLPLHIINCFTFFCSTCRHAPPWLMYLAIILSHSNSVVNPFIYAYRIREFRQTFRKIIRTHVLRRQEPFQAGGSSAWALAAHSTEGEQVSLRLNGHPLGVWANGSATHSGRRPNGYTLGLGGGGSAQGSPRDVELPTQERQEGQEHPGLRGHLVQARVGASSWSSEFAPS
Give bare numbers, in µM.

Cn1c(=O)c2c(nc(-c3ccc(S(=O)(=O)O)cc3)n2C)n(C)c1=O ... 20
CC(C)Cn1c(=O)n(C)c(=O)c2[nH]cnc21 ... 5.8

Field: Ki. Fill in for each record below.
1. C=CCn1c(=O)c2c(nc(-c3ccc(C(F)(F)F)cc3)n2C)n(C)c1=O
2. Cn1c(-c2ccccc2)nc2c1c(=O)[nH]c(=O)n2C

stdout:
1. 11
2. 12
